- system under test: Cif (Pseudomonas aeruginosa, UniProt A0A0H2ZD27)
- Sequence (A0A0H2ZD27 25-319 limits assumed): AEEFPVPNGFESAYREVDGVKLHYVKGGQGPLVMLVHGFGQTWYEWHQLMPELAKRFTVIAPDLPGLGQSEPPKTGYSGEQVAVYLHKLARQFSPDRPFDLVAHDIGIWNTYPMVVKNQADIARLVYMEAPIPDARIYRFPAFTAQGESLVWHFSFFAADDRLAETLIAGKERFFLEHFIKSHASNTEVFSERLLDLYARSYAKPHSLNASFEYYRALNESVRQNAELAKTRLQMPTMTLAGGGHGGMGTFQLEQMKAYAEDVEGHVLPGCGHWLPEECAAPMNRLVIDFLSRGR
- protocol: Competitive or displacement sandwich ELISA (dsELISA) with Nb 219
In this section, each of the compounds is paired with its reported EC50.

State its EC50 for this compound: NC(=O)c1ccc(-c2cc(Oc3c(Cl)cc(N)cc3Cl)ccc2O)cc1
700 nM

Look up and state reported EC50 for O=C(O)CC(=O)Nc1cc(Cl)c(Oc2ccc(O)cc2)c(Cl)c1 [Compound 1, reference compound]
> 200000 nM

Specify EC50 for CCC(=O)Nc1cc(Cl)c(Oc2ccc(O)c(-c3ccc(C(N)=O)c(F)c3)c2)c(Cl)c1 and stop.
200 nM

---

- system under test: Cif (Pseudomonas aeruginosa, UniProt A0A0H2ZD27)
- Construct: made in house
- protocol: biochemical
- assay context: Fluorescent assay IC50, Table 7, small molecule inhibitors
property measured: IC50

Note down IC50 recorded for O=C(O)CC(=O)Nc1cc(Cl)c(Oc2ccc(O)cc2)c(Cl)c1 [Compound 1, reference compound]
> 50 µM

---

- system under test: Cif (Pseudomonas aeruginosa, UniProt A0A0H2ZD27)
- protocol: Octet bio-layer interferometry
- assay context: steady state analysis, 30° C.
- Description: Octet Bio-Layer Interferometry: KD of Cif and their inhibitors was determined by Bio-Layer Interferometry using an Octet Red instrument (ForteBio). Recombinant Cif-His was prepared as described previously (20,29). Stocks of purified proteins were stored at 4° C. until used.
property measured: pKd
In simple prose, pKd is minus the logarithm base ten of a concentration in moles per litre.

Identify measured pKd associated with NC(=O)c1ccc(-c2cc(Oc3c(Cl)cc(N)cc3Cl)ccc2O)cc1 [Compound 7]
6.05
